Experiment: HUVEC growth inhibition – cell-based, human, primary screen (AID 575);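 further: 100% = median of untreated cell wells with 0.1% DMSO on each plate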
Details: HUVEC proliferation, CellTiter-Glo luminescence, 72 h; at 10 µM; stronger effect = lower value
Measured viability values are reported for all entries that follow.
Value expressed in %; do not type the unit.

Example results:
[[record]]
compound = "O=C1CCCC2=C1C(c1cccs1)n1nc(SCc3ccccc3F)nc1N2 (stereo unspecified)"
readout_units = "%"
obs_value = 65.5

[[record]]
compound = "CCOC(=O)c1ccc2ncc(C(=O)OCC)c(NCCN(C)C)c2c1"
readout_units = "%"
obs_value = 102

[[record]]
compound = "Cc1ccc(C)c(N2C(=O)CN=C2Nc2ccccc2Cl)c1"
readout_units = "%"
obs_value = 80.1

[[record]]
compound = "O=C(CSc1nc2c(c(=O)n1-c1ccc(F)cc1)SCC2)NCC1CCCO1 (stereo unspecified)"
readout_units = "%"
obs_value = 92.6


QUERY: Entry under review: CN1CCN(C2=C(Cl)C(=O)N(c3cccc(Cl)c3)C2=O)CC1 . Reported viability?
RESULT: 87.7

QUERY: Tell me the measured viability of O=C(Cn1nc(Cc2cccnc2)c2ccccc2c1=O)Nc1ccc2c(c1)OCO2 , please.
RESULT: 84.5

QUERY: Please give the measured viability for this compound: COc1ccc(N(CC(=O)Nc2ccc3c(c2)OCCO3)S(=O)(=O)c2cccnc2)cc1
RESULT: 104

QUERY: Given the entry COCCn1c(=N)c(C(=O)NCCc2ccccc2)cc2c(=O)n3cccc(C)c3nc21 , report its measured viability.
RESULT: 86.6

QUERY: Quick one: viability of O=C1c2ccccc2C(Nc2cccnc2)N1Cc1ccccc1Cl (stereo unspecified) ?
RESULT: 94.9

QUERY: Please report the recorded viability for CC1CCC(NC(=O)Cn2ncc3ccccc32)CC1 (stereo unspecified) .
RESULT: 107

QUERY: Name the reported viability value associated with the compound O=C(O)c1ccccc1S(=O)(=O)NCC(O)COc1ccc(Br)cc1 (stereo unspecified)
RESULT: 119
